Quick reference for melting point among some molecules

- Cn1cc(C(=O)Nc2ccccc2-c2cccc(C(F)(F)F)c2)c(C(F)F)n1 [No. I.9]: 124 to 125 °C
- Cn1cc(C(=O)Nc2ccccc2-c2cccc(Cl)c2)c(C(F)(F)F)n1 [No. I.1]: 92 to 94 °C
- Cn1cc(C(=O)Nc2ccccc2-c2cccc(Cl)c2)c(C(F)F)n1 [No. I.12]: 110 to 112 °C

molecule Cn1cc(C(=O)Nc2ccccc2-c2cccc(C(F)(F)F)c2)c(C(F)(F)F)n1 [No. I.4] , melting point observed: 132 to 134 °C

The molecule listed as Cn1cc(C(=O)Nc2ccccc2-c2cccc(F)c2)c(CF)n1 [No. I.13] has a reported melting point of 138 to 141 °C

Summary for this molecule, Cc1nn(C)cc1C(=O)Nc1ccccc1-c1cccc(Cl)c1 [No. I.10] : melting point is 104 to 106 °C

Kindly note the recorded melting point for Cn1cc(C(=O)Nc2ccccc2-c2cccc(F)c2)c(C(F)F)n1 [No. I.14] , which is 130 to 135 °C

For this molecule ( Cc1nn(C)c(F)c1C(=O)Nc1ccccc1-c1cccc([N+](=O)[O-])c1 [No. I.16] ), measured melting point is 137 to 139 °C

Quick note, melting point for Cc1nn(C)c(F)c1C(=O)Nc1ccccc1-c1cccc(C(F)(F)F)c1 [No. I.17] landed at 113 to 114 °C
